These measurements were taken from PubChem BioAssay.

target: L-lactate dehydrogenase (Plasmodium falciparum (isolate CDC / Honduras)); test: PfLDH activity inhibition – cell lysate, 3D7 strain, counter-screen for P. falciparum growth inhibition project (AID 2304);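 also: 0% = vehicle and 100% = reference inhibitor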; conditions: P. falciparum 3D7 crude extract, LDH APAD/NBT absorbance; at 2 µM; hits give high values
Property: inhibition (%)
Answers are plain numbers, in %.

CCC(CSC1CCCCC1)N(C)CCN(C)C(CC)CSC1CCCCC1 (stereo not given)
-4
Cc1ccc(NC(=O)c2ccc(N3CCN(c4ccncc4)CC3)cn2)cc1F
2
c1ccc(-c2cccc(-c3ccccn3)n2)nc1
-1
CC1CCN(CC[C@H]2CCCN2S(=O)(=O)c2cccc(NC(=O)c3ccc(-c4ccccc4)cc3)c2)CC1
-6

Kindly consider the entry below.
[in] Given OC[C@H](Nc1nc(C(Oc2ccccc2)c2ccccc2)nc2[nH]ncc12)c1ccccc1 (stereo not given in full) , report its inhibition on L-lactate dehydrogenase (Plasmodium falciparum (isolate CDC / Honduras)).
[out] -4

----------
assay: inhibition of 3D7 malaria parasite growth – strain 3D7 (AID 2306);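 also: 0% = DMSO wells and 100% = chloroquine plus artemisinin control wells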; settings: P. falciparum 3D7 erythrocytic growth, LDH absorbance, 72 h; at 2 µM; hits give high values
Quick rule: growth inhibition of at least 90% means rule met, below that means rule not met.

Reference set, count: 5
N[C@@H](CCNCc1ccc(-c2cccnc2)cc1)Cc1ccc(F)c(F)c1
rule met
CCN(CC)S(=O)(=O)c1cc(-c2ccc(=O)n(CC(=O)c3ccc(C)cc3)n2)ccc1C
rule not met
CCN1CCc2nc3ccccc3c(C(=O)Nc3ccc(C#N)cc3)c2C1
rule met
Cc1ccc(Nc2nc(C)cc(N3CCN(CCc4ccccc4)CC3)n2)cc1
rule met
CCCCN(CCCC)CCNC(=O)c1cccc(NC(=O)N2CCc3cc(SC)c(C(F)(F)F)cc32)c1
rule met

[in] State whether the measured growth inhibition reaches 90%, counting equality as reaching it, for CCCCCCCCNCCCSCCCNCCCCCCCC
[out] rule met

[in] Please check the record CCc1c(CCNCCCCCCNCCc2ccc([N+](=O)[O-])cc2)ccc(OC)c1OC and state if its growth inhibition is at or above 90%.
[out] rule met

[in] Please indicate if the recorded growth inhibition for O=C(Cc1cccc(Cl)c1)Nc1ccc(N2CCC(NCc3ccc4ncccc4c3)CC2)cc1 meets or exceeds 90%.
[out] rule not met

----------
experiment: HepG2 cytotoxicity, primary screen, cytotoxicity control for P. falciparum antimalarial project, cell-based, ATP luminescence (AID 2303); conditions: HepG2 viability, 24-48 h, at 10 µM, hits give high values;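 also: 0% = DMSO wells and 100% = digitonin-killed cells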
Would you mind telling me the reported inhibition of each entry?
Answers are plain numbers, in %.

Here are 5 compounds together with their reported answers.
Cc1ccc(Cn2nc(Cl)c(N3CCNCC3)cc2=O)cc1NC(=O)Nc1ccc(-c2ccccc2)cc1
100
Ic1cc(Nc2ncnc3ccsc23)ccc1OCc1ccccc1
22
Cc1ccc(Oc2ncccc2C(=O)Nc2cccc3cccnc23)c(C)c1
-13
CN(C(=O)/C=C/c1c(Cl)cccc1Cl)C1CCN(CCCCCNC(=O)/C=C/c2ccc(Cl)c(Cl)c2)CC1
78
COc1cc2c(cc1OCCN1CCC(N3CCCCC3)CC1)N(C(=O)/C=C/c1ccccc1OC(F)(F)F)CC2
64

Hey, quick one: what's inhibition for each of these?
1. N#Cc1ccc(N2C[C@@H](OCc3ccccc3)C[C@H]2C(=O)NCCC(c2ccccc2)c2ccccc2)c2ccccc12
2. CCC(C)CN1CCN(c2cc(NC(=O)c3cccs3)ccn2)C(C)C1 (centres undefined)
3. C[C@H](Cc1ccc(C[C@@H](C)NC[C@H](O)c2cccc(Cl)c2)cc1)NC[C@H](O)COc1ccccc1
4. Cn1cc(Br)c(-c2cccc(Nc3ccnc4cc(-c5nccs5)ccc34)c2)n1
5. O=c1[nH]ccc2nc(N[C@@H]3CCNC3)nc(Nc3cccc(S(=O)(=O)N4CCOCC4)c3)c12
6. Fc1ccc(Nc2ccnc3cc(-c4cccc(CN5CCCCC5)c4)ccc23)c(Cl)c1
7. O=C(Nc1ccccc1-c1ccccc1)C1CCCN1C(=O)Nc1ccc(Cl)cc1 (centres undefined)

[out]
1. 11
2. 5
3. 99
4. 37
5. 0
6. 3
7. -6

Below are some compounds; for each one, tell me its inhibition.
1. CN(CCCNc1ccc(C(=O)Nc2ccc(C(F)(F)F)cc2)cc1[N+](=O)[O-])Cc1ccccc1
2. O=C(NCC1CCN(Cc2cccc(C(F)(F)F)c2)C1)c1cc(-c2cccc(C(F)(F)F)c2)cs1 (centres undefined)
3. N#Cc1cccc(NC(=O)Nc2ccc(-c3ccc(-c4nc5ccc(C(F)(F)F)cc5[nH]4)cc3)cc2)c1

[out]
25
35
51

----------
experiment: inhibition of 3D7 malaria parasite growth – strain 3D7 (AID 2306);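 also: 0% = DMSO wells and 100% = chloroquine plus artemisinin control wells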; conditions: P. falciparum 3D7 erythrocytic growth, LDH absorbance, 72 h; at 2 µM; hits give high values
Label 1 when growth inhibition >= 90%; otherwise 0.

Here's what some known entries look like.
CCCC1CCNC(C(O)c2ccnc3ccc(OC)cc23)C1 (stereo not given)
1
O=C(Nc1ccccc1)N(Cc1cccc(-c2ccc(CNC3CCCC3)cc2)c1)C1CCN(Cc2ccccc2)CC1
1
Cc1cccc2[nH]c(-c3cccc(-c4ccc(C(=O)NCCc5ccc(O)c(=O)[nH]5)cc4)c3)nc12
0

[in] Hi team, for COc1ccc2nccc([C@@H](O)CN3CCC(NCCOc4cccc(C(F)(F)F)c4)CC3)c2c1 , is the recorded growth inhibition at or above 90%?
[out] 1

[in] Does CCN(CC)CCCNCc1ccc(-c2ccc(C(F)(F)F)cc2)cc1 have a reported growth inhibition of at least 90%?
[out] 1

[in] Dear colleague, could you confirm whether CO/C(=C\C=C\c1cc2cc(Cl)c(Cl)cc2[nH]1)C(=O)NCCN1CCCCC1 has growth inhibition at or above 90%?
[out] 0

----------
Hi there, I'd appreciate the recorded inhibition for every entry that follows.
molecular target: L-lactate dehydrogenase (Plasmodium falciparum (isolate CDC / Honduras)) (UniProt Q27743); test: PfLDH activity inhibition – cell lysate, 3D7 strain, counter-screen for P. falciparum growth inhibition project (AID 2304);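 also: 0% = vehicle and 100% = reference inhibitor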; settings: P. falciparum 3D7 crude extract, LDH APAD/NBT absorbance; at 2 µM; hits give high values
Sequence (Q27743 whole entry, looked up): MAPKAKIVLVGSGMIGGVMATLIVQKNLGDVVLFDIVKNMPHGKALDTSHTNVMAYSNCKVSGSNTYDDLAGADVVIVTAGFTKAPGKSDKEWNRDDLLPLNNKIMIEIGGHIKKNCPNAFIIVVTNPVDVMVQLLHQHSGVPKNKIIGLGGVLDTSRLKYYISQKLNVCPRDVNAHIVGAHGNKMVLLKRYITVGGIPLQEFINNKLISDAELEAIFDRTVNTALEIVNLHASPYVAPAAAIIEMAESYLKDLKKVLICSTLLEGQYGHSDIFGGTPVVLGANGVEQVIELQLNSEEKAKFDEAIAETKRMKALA
Numbers only, in %.

The following compounds have reported results that may help.
CS(=O)(=O)NCCCNCc1ccc(-c2ccc(-c3nc4ccc(C(F)(F)F)cc4[nH]3)s2)cc1
-5
COc1ccc2nccc(C(=O)NC3CCC(CCN4CCc5cc(C#N)ccc5C4)CC3)c2c1 (centres undefined)
1
Cc1cc(NC(=O)c2ccco2)ccc1OC1CCN(Cc2ccc(F)cc2)CC1
-2
COC(=O)c1cccc(CNCc2cccc(-c3ccc(-c4nc5ccc(C(F)(F)F)cc5[nH]4)cc3)c2)c1
3
O=C(Nc1cccc(N2CCC(NCc3cnn(-c4cccc(F)c4)c3)CC2)c1)c1ccncc1
4

Consider the following items and state reported inhibition for each.
1. N#Cc1cc([N+](=O)[O-])ccc1-n1nc(-c2cccc(Cl)c2)n(Cc2ccco2)c1=S
2. CCOc1ccc(CCCON2C(N)=NC(N)=NC2(C)C)cc1
3. Cc1cc(N[C@@H](Cc2ccccc2)C(=O)NCc2cccc(F)c2)nc(NCc2ccccc2C)n1
4. COc1cc(Nc2ccc3cc(S(=O)(=O)N4CCCCC4C)ccc3n2)cc(OC)c1OC (centres undefined)
5. O=C(Nc1ccc(C(F)(F)F)cc1)c1ccc(S(=O)(=O)NC2CCCN(CC3CCCCC3)C2)cc1 (centres undefined)
6. CN1CCCc2ccc(NC(=O)Nc3ccc(Cl)c(Cl)c3)cc2C1

[out]
1: -1; 2: 0; 3: 0; 4: -1; 5: -5; 6: -2

Give measured inhibition for every item shown.
1. O=C(Nc1cccc(F)c1)N[C@H]1CCN(CCCCCNC(=O)[C@@H]2C[C@H]2c2ccc(Cl)c(Cl)c2)C1
2. CCc1c(CCNCCCCCCNCCc2ccc(OC)c(OC)c2C)ccc(OC)c1OC
3. Oc1ccc(Cl)cc1Nc1nc(C(F)(F)F)nc2ccccc12

[out]
1: -1; 2: 5; 3: 5

Respectfully, I request inhibition for each entry included below.
1. Oc1ccc(CCCNc2nc(NCc3cccc4ccccc34)nc(N3CCNCC3)n2)cc1
2. CCCc1cc(C)ccc1OCCCON1C(NC(=O)OCC)=NC(NC(=O)OCC)=NC1(C)C
3. N#Cc1ccc(-c2nc(CO)c(C(=O)NCCCCN3CCC(c4ccc5c(c4OCC(N)=O)CCCC5)CC3)s2)cc1

[out]
-1
0
4

Okay, here is my list. What is inhibition for each of these?
1. COc1ccc(CC(=O)NC(CCCN2CCC(c3ccccc3)CC2)c2ccc(Cl)c(Cl)c2)cc1OC (centres undefined)
2. O=C(Nc1ccc2c(c1)CCN2C1CCN(Cc2ccc(O)cc2)C1)c1ccco1 (centres undefined)

[out]
1. -7
2. -2

----------
I'd appreciate it if you could supply growth inhibition values for the items below.
assay: antimalarial activity against Dd2 strain (AID 2302);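 also: 0% = DMSO untreated growth and 100% = chloroquine plus artemisinin killed control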; conditions: P. falciparum Dd2 in RBCs, LDH growth readout, 72 h; at 2 µM; hits give high values
Numbers only, in %.

Use the examples below as a reference point.
CCCOc1cccc(C(=O)N[C@@H](Cc2ccccc2)[C@H](O)CNCc2ccccc2OC)c1
61
COc1cc2cc(-c3nc4ccccc4[nH]3)c(N)nc2cc1OC
100
O=C(NC1CCC1)C1CCN(C(c2ccccc2)c2cc(F)cc(F)c2)CC1 (stereo not drawn)
72
COc1ccc(-n2nc(C)c3c2NC(=O)CC3c2ccccc2OCc2ccccc2F)cc1 (stereo not drawn)
70
CN(c1ccc(F)cc1)S(=O)(=O)c1ccc(Cl)c(C(=O)Nc2cccc(C#N)c2)c1
58

Hi team, please reply with growth inhibition for each item in this list.
1. CCCNCc1ccc(-c2ccc(CN(Cc3cnc(C)cn3)C(=O)c3nn(-c4ccccc4)nc3C)cc2)nc1
2. CC(C)CNCc1ccc(-c2cccc(CN(CCN(C)C)C(=O)CCC3CCCC3)c2)cc1

[out]
1. 49
2. 81
